// data source = PubChem BioAssay (NCI)

# System: SK-MEL-28 melanoma
# assayExplanation: NCI tumour cell line growth inhibition, 48 h
# GI50 listing for each entry below

compound: c1ccc(Cn2cc3c(c2)-c2oncc2CC3)cc1
GI50: 4.27 µM
//
compound: COc1cc(C2c3cc4c(cc3C3OC(=O)C2C3CO)OCO4)cc(OC)c1OC (stereo unspecified)
GI50: 8.68 µM
//
compound: O=C1Nc2ccccc2C12CC(c1ccccc1)=NN2 (stereo unspecified)
GI50: 15.7 µM
//
compound: COc1ccc(C(=O)Nc2ncc(Cc3ccc(F)cc3)s2)cc1
GI50: 2.16 µM
//
compound: COc1cc2c(cc1OCCCCCCNC(=O)c1cc3ccccc3[nH]1)N=CC1CCCN1C2=O (stereo unspecified)
GI50: > 100 µM
//
compound: Cc1cc(-c2ccccc2)c(C)n1Cc1ccc(Cl)cc1
GI50: 6.18 µM
//
compound: COC(=O)C1CC2(c3ccc(C)cc3)C(c3ccc(C)cc3)=C(c3ccc(C)cc3)C1(c1ccc(C)cc1)S2=O (stereo unspecified)
GI50: > 100 µM
//
compound: O=C1C=C(N2CC2)c2ccccc2C1=O
GI50: 1.77 µM
//
compound: COc1cc(Nc2ncc3c(n2)-c2ccc(Cl)cc2C(c2c(F)cccc2OC)=NC3)ccc1C(=O)O
GI50: 13.2 µM
//
compound: CC(C)[C@@H](C(=O)O[C@@H]1/C=C/C(=O)O[C@@H](C)CCC/C=C/[C@@H]2C[C@H](O)C[C@H]21)[N+](C)(C)C
GI50: > 100 µM
//
compound: O=C1CC(c2ccccc2)Cc2nc3ccc(Cl)cc3cc21 (stereo unspecified)
GI50: 1.05 µM

---

# Test system: U251 CNS
Outcomes: active, inactive

molecule: COc1ccc(N2CCN(CC(=O)N3CCN(c4nnc(-c5ccccc5)c(-c5ccccc5)n4)CC3)CC2)cc1
answerLabel: inactive
//
molecule: CC(=O)NNC(=O)c1nn(-c2ccc(Cl)cc2)cc1OC(C)=O
answerLabel: inactive
//
molecule: O=C(Cc1ccccc1)Nc1nnc(CCSCCc2nnc(NC(=O)Cc3ccccc3)s2)s1
answerLabel: inactive
//
molecule: Nc1c(C(=O)Nc2cccc3ccccc23)sc2nc3c(cc12)CCCC3
answerLabel: inactive
//
molecule: O=C(Cc1ccc(/C=C/C(=O)c2ncc[nH]2)cc1)Nc1ccc(Br)cc1
answerLabel: inactive
//
molecule: COc1ccc(/C=C/c2nc(N3CCOCC3)c3cc(F)c(F)cc3n2)cc1OC
answerLabel: inactive
//
molecule: COc1cc(C(=O)/C=C/c2c(-c3ccc(F)cc3)nc3sccn23)cc(OC)c1OC
answerLabel: inactive
//
molecule: COc1cc(Nc2ncc3c(n2)-c2ccc(Cl)cc2C(c2c(F)cccc2OC)=NC3)ccc1C(=O)O
answerLabel: inactive
//
molecule: O=C1C=C(N2CC2)c2ccccc2C1=O
answerLabel: inactive
//
molecule: Clc1ccccc1-c1nc2ccccc2[nH]1
answerLabel: inactive
//
molecule: Cc1ccc(C(=O)Nc2ccc(CN3CCN(C)CC3)c(C(F)(F)F)c2)cc1C#Cc1cncc2ncccc12
answerLabel: inactive
//
molecule: O=C(O)c1cn(C2CC2)c2cc(N3CCN(S(=O)(=O)c4ccc(Cl)c(Cl)c4)CC3)c(F)cc2c1=O
answerLabel: inactive
//
molecule: COc1ccc(-c2nnc3n(C)c(=O)c4ccccc4n23)cc1O
answerLabel: active
//
molecule: O=C1Nc2ccccc2C12CC(c1ccccc1)=NN2 (configuration not stated)
answerLabel: inactive
//
molecule: Cc1cc(C)cc(Nc2nccc(-c3c(-c4ccc(F)cc4)ncn3C3CCNCC3)n2)c1
answerLabel: inactive
//
molecule: COc1cc2c(cc1OCCCCCCNC(=O)c1cc3ccccc3[nH]1)N=CC1CCCN1C2=O (configuration not stated)
answerLabel: inactive
//
molecule: COC(=O)Nc1nc2c(OC)c(OC)c(OC)cc2[nH]1
answerLabel: inactive
